- tested.on: human CB2 (Homo sapiens (Human), UniProt P34972)
- assay.method.text: In vitro cannabinoid receptor activity assay (calcium mobilization, FLIPR) in CHO cells expressing human CB2 and Gαq16
- cond: CHO cells, hCB2, calcium fluorescence; read-out: hCB2 Ca EC50
Record form. Attribute: pEC50. Fill in for each entry.
Value format note: pEC50 is -log10 of concentration (mol/L); just state the number.

Value of pEC50 reported for the compound C[C@@H](NC(=O)c1nn(Cc2ccc(F)cc2)c2ccccc12)c1cccc(C(N)=O)c1 is 6.18

Value of pEC50 reported for the compound CC(C)(NC(=O)c1nn(Cc2ccc(F)cc2F)c2ccccc12)c1cccc(C(N)=O)c1 is 6.52

Input CC(C)(NC(=O)c1nn(CC2CCC(F)(F)CC2)c2ccccc12)c1cccc(NC(N)=O)c1 . Output pEC50: 7.24

pEC50 measured on CCCCCn1nc(C(=O)NC(C)(C)c2cccc(C(N)=O)c2)c2ccccc21 = 6.74

The compound listed as CC(C)(NC(=O)c1nn(Cc2ccc(F)cc2)c2ccccc12)C1CCN(CC(N)=O)CC1 has a reported pEC50 of 7.54

// sample CC(C)(NC(=O)c1nn(Cc2ccc(F)cc2)c2ccccc12)C1CCCN(C(N)=O)C1 (stereo not drawn) , its pEC50 was 7.34

====

- tested.on: human CB1 (Homo sapiens (Human), UniProt P21554)
measured.attribute: Ki
Form field: result (number plus unit)

Ki reported for this compound CC(C)(NC(=O)c1nn(Cc2ccc(F)cc2)c2ccccc12)c1cccc(C(N)=O)c1 : 4 nM

The recorded Ki for CC(C)(NC(=O)c1nn(Cc2ccc(F)cc2)c2ccccc12)C1CCCN(CC(N)=O)C1 (stereo not shown) is 48 nM

# compound C[C@H](NC(=O)c1nn(Cc2ccc(F)cc2)c2ccccc12)c1cccc(C(N)=O)c1 ; its Ki = 7 nM

Form: compound = CC(C)(NC(=O)c1nn(Cc2ccc(F)cc2F)c2ccccc12)c1cccc(C(N)=O)c1 ; Ki = 18 nM

====

- tested.on: human CB1 (Homo sapiens (Human))
- assay.method.text: In vitro cannabinoid receptor activity assay (calcium mobilization, FLIPR) in CHO cells expressing human CB1 and Gαq16
- Format: cell-based
- cond: percentage of the maximum CP55940 signal, hCB1
Assign labels as follows, please: TRUE for hCB1 Ca Span below 80%; FALSE for hCB1 Ca Span equal to or exceeding 80%.

Is it true that hCB1 Ca Span reported for CC(C)(NC(=O)c1nn(CCCCC(F)(F)F)c2ccccc12)c1cccc(C(N)=O)c1 [Example 19] is less than 80%?
TRUE

Could you please tell me whether hCB1 Ca Span recorded for CC(C)(NC(=O)c1nn(CCCCCF)c2ccccc12)c1cccc(NC(N)=O)c1 [Example 25] is less than 80%?
TRUE

Consider the molecule CNC(=O)Nc1cccc(C(C)(C)NC(=O)c2nn(CCCCCF)c3ccccc23)c1 [Example 28] . Is its hCB1 Ca Span strictly less than 80%?
FALSE

Hello, is hCB1 Ca Span of the following molecule strictly smaller than 80%? CC(C)(NC(=O)c1nn(CCCCCF)c2ccccc12)c1cccc(C(N)=O)c1 [Example 18]
TRUE

For this molecule, is hCB1 Ca Span lower than 80%? CNC(=O)Nc1cccc(C(C)(C)NC(=O)c2nn(CC3CCC(F)(F)CC3)c3ccccc23)c1 [Example 26]
FALSE

Confirm or reject: hCB1 Ca Span of CC(C)(NC(=O)c1nn(Cc2ccc(F)cc2)c2ccccc12)C1CCN(CC(N)=O)CC1 [Example 32] lies strictly below 80%
FALSE

Does the reported hCB1 Ca Span of the following molecule sit strictly below 80%? CC(C)(NC(=O)c1nn(Cc2ccc(F)cc2)c2ccccc12)c1cccc(C(N)=O)c1 [Example 12]
TRUE

I'd appreciate it if you could check whether CC(c1ccc(F)cc1)n1nc(C(=O)NC(C)(C)c2cccc(C(N)=O)c2)c2ccccc21 (centres unmarked) [Example 14] has hCB1 Ca Span smaller than 80%.
TRUE

Given CC(C)(NC(=O)c1nn(Cc2ccc(F)cc2)c2ccccc12)c1cccc(NC(N)=O)c1 [Example 21] , is recorded hCB1 Ca Span strictly lower than 80%?
TRUE

Please indicate whether the reported hCB1 Ca Span of CC(C)(NC(=O)c1nn(Cc2ccc(F)cc2F)c2ccccc12)c1cccc(C(N)=O)c1 [Example 13] is strictly below 80%.
TRUE

Bench note: check whether CC(C)(NC(=O)c1nn(Cc2ccc(F)cc2)c2ccccc12)C1CCCN(C(N)=O)C1 (centres unmarked) [Example 29] shows hCB1 Ca Span below 80%
TRUE

Is hCB1 Ca Span of CCCCCn1nc(C(=O)NC(C)(C)c2cccc(C(N)=O)c2)c2ccccc21 [Example 17] strictly below 80%?
TRUE

Below 80% on hCB1 Ca Span? Entry CC(C)(NC(=O)c1nn(CC2CCOCC2)c2ccccc12)c1cccc(NC(N)=O)c1 [Example 23]
FALSE

Is it true that hCB1 Ca Span reported for CC(C)(NC(=O)c1cn(Cc2ccc(F)cc2)c2ccccc12)c1cccc(C(N)=O)c1 [Example 33] is less than 80%?
TRUE

Item C[C@@H](NC(=O)c1nn(Cc2ccc(F)cc2)c2ccccc12)c1cccc(C(N)=O)c1 [Example 10] : hCB1 Ca Span beneath 80%, strictly?
TRUE

In plain terms, does CC(C)(NC(=O)c1nn(Cc2ccc(F)cc2)c2ccccc12)C1CCN(C(N)=O)CC1 [Example 31] come in under 80% for hCB1 Ca Span?
TRUE

Does the reported hCB1 Ca Span of CC(C)(NC(=O)c1nn(CC2CCC(F)(F)CC2)c2ccccc12)c1cccc(NC(N)=O)c1 [Example 22] stay below 80%?
FALSE

A record lists CCCCCn1nc(C(=O)NC(C)(C)c2cccc(NC(N)=O)c2)c2ccccc21 [Example 24] . Is its hCB1 Ca Span below 80%?
TRUE

Given the entry CC(C)(NC(=O)c1nn(Cc2ccc(F)cc2)c2ccccc12)C1CCCN(CC(N)=O)C1 (centres unmarked) [Example 30] , would its reported hCB1 Ca Span be below 80%?
TRUE

# strict comparison: is reported hCB1 Ca Span < 80%? input = CC(C)(NC(=O)c1nn(CC2CCC(F)(F)CC2)c2ccccc12)c1cccc(C(N)=O)c1 [Example 15]
FALSE

# check: hCB1 Ca Span < 80% for C[C@H](NC(=O)c1nn(Cc2ccc(F)cc2)c2ccccc12)c1cccc(C(N)=O)c1 [Example 11]
FALSE

Below 80% on hCB1 Ca Span? Entry CCCCCn1nc(C(=O)NC(C)(C)c2cccc(NC(=O)NC)c2)c2ccccc21 [Example 27]
FALSE

Dear reviewer, please state whether CC(C)(NC(=O)c1nn(CC2CCOCC2)c2ccccc12)c1cccc(C(N)=O)c1 [Example 16] has hCB1 Ca Span strictly beneath 80%.
FALSE

====

human CB2 (Homo sapiens (Human)): reported Ki for various compounds.
Supply the numeric figure in nM, leaving out any unit text.

Documented Ki of CC(C)(NC(=O)c1nn(Cc2ccc(F)cc2)c2ccccc12)C1CCCN(CC(N)=O)C1 (stereo not shown) [Example 30] : 21

The compound identified as CC(C)(NC(=O)c1nn(Cc2ccc(F)cc2)c2ccccc12)c1cccc(C(N)=O)c1 [Example 12] registered its Ki at 10

For record CC(C)(NC(=O)c1nn(Cc2ccc(F)cc2F)c2ccccc12)c1cccc(C(N)=O)c1 [Example 13] the listed Ki is 27

get_value(item= C[C@H](NC(=O)c1nn(Cc2ccc(F)cc2)c2ccccc12)c1cccc(C(N)=O)c1 [Example 11] , readout=Ki) returns 34

====

- tested.on: human CB1 (Homo sapiens (Human))
- assay.method.text: In vitro cannabinoid receptor activity assay (calcium mobilization, FLIPR) in CHO cells expressing human CB1 and Gαq16
- cond: CHO cells, hCB1, calcium fluorescence; read-out: hCB1 Ca EC50
- Method: In vitro cannabinoid receptor activity assay. […] Cells were incubated at 37° C. for 1 hr and then stimulated with various concentrations of a test agent using a FLIPR Tetra plate-reader, which automatically added the agonist at 10× concentration to each well after reading baseline values for ˜17 sec. Agonist-mediated change in fluorescence (488 nm excitation, 525 nm emission) was monitored in each well at 1 sec intervals for 60 sec and reported for each well. […]
Can you tell me log10(EC50) for the items I'm about to list?
Please keep in mind that the values are log10 of EC50 expressed in nM.

response.value for CCCCCn1nc(C(=O)NC(C)(C)c2cccc(NC(N)=O)c2)c2ccccc21 [Example 24] (field: log10(EC50)) = 3.11

Noted for CC(C)(NC(=O)c1cn(Cc2ccc(F)cc2)c2ccccc12)c1cccc(C(N)=O)c1 [Example 33] : its log10(EC50) reads 2.94

// recorded log10(EC50) for CC(C)(NC(=O)c1nn(Cc2ccc(F)cc2)c2ccccc12)c1cccc(NC(N)=O)c1 [Example 21] : 3.20

Briefly, log10(EC50) measured for CCCCCn1nc(C(=O)NC(C)(C)c2cccc(NC(=O)NC)c2)c2ccccc21 [Example 27] : 2.00

Reported log10(EC50) for CC(C)(NC(=O)c1nn(CCCCCF)c2ccccc12)c1cccc(C(N)=O)c1 [Example 18] was 1.89

Looking up CC(C)(NC(=O)c1nn(CC2CCOCC2)c2ccccc12)c1cccc(NC(N)=O)c1 [Example 23] , I see its log10(EC50) listed as 3.08

Sample CC(C)(NC(=O)c1nn(Cc2ccc(F)cc2)c2ccccc12)c1cccc(C(N)=O)c1 [Example 12] ; log10(EC50) observed: 1.32

In plain terms, CC(C)(NC(=O)c1nn(CC2CCOCC2)c2ccccc12)c1cccc(C(N)=O)c1 [Example 16] has a documented log10(EC50) of 2.15

Measured log10(EC50) of CC(C)(NC(=O)c1nn(CC2CCC(F)(F)CC2)c2ccccc12)c1cccc(C(N)=O)c1 [Example 15] : 1.18

Entry C[C@H](NC(=O)c1nn(Cc2ccc(F)cc2)c2ccccc12)c1cccc(C(N)=O)c1 [Example 11] , log10(EC50) reported as 1.43

So for CC(C)(NC(=O)c1nn(CCCCCF)c2ccccc12)c1cccc(NC(N)=O)c1 [Example 25] , the logged log10(EC50) turned out to be 2.76

Sure, the documented log10(EC50) for C[C@@H](NC(=O)c1nn(Cc2ccc(F)cc2)c2ccccc12)c1cccc(C(N)=O)c1 [Example 10] is 2.69

Record summary for CCCCCn1nc(C(=O)NC(C)(C)c2cccc(C(N)=O)c2)c2ccccc21 [Example 17] : reported log10(EC50) = 2.34

The molecule listed as CC(C)(NC(=O)c1nn(Cc2ccc(F)cc2)c2ccccc12)C1CCCN(CC(N)=O)C1 (centres unmarked) [Example 30] shows log10(EC50) equal to 2.52

Per the record, CC(C)(NC(=O)c1nn(Cc2ccc(F)cc2F)c2ccccc12)c1cccc(C(N)=O)c1 [Example 13] has log10(EC50) of 2.26

Entry CC(C)(NC(=O)c1nn(Cc2ccc(F)cc2)c2ccccc12)C1CCN(CC(N)=O)CC1 [Example 32] , log10(EC50) reported as 1.60

log10(EC50) in this record for CC(C)(NC(=O)c1nn(CCCCC(F)(F)F)c2ccccc12)c1cccc(C(N)=O)c1 [Example 19] : 2.18

// CNC(=O)Nc1cccc(C(C)(C)NC(=O)c2nn(CCCCCF)c3ccccc23)c1 [Example 28] : log10(EC50) value = 1.48

Documented log10(EC50) of CC(C)(NC(=O)c1nn(Cc2ccc(F)cc2)c2ccccc12)C1CCN(C(N)=O)CC1 [Example 31] : 3.00

The molecule listed as CNC(=O)Nc1cccc(C(C)(C)NC(=O)c2nn(CC3CCC(F)(F)CC3)c3ccccc23)c1 [Example 26] has a reported log10(EC50) of 1.20

The reported value for CC(C)(NC(=O)c1nn(CC2CCC(F)(F)CC2)c2ccccc12)c1cccc(NC(N)=O)c1 [Example 22] in terms of log10(EC50) is 2.20

The reported value for CC(C)(NC(=O)c1nn(Cc2ccc(F)cc2)c2ccccc12)C1CCCN(C(N)=O)C1 (centres unmarked) [Example 29] in terms of log10(EC50) is 2.15

Sample CC(c1ccc(F)cc1)n1nc(C(=O)NC(C)(C)c2cccc(C(N)=O)c2)c2ccccc21 (centres unmarked) [Example 14] ; log10(EC50) observed: 2.38
